Assign T/C to each entry below.
Test system: P388 leukemia ip, CD2F1 mice, survival T/C
Assay: NCI In Vivo Anticancer Drug Screen. Data for tumor model P388 Leukemia (intraperitoneal) in CD2F1 (CDF1) mice
Conditions: endpoint: median survival time; dose: 120.0 mg/kg/injection; schedule: Q01DX005 (ip); vehicle: saline with Tween-80; higher = longer survival
Procedure: The antitumor activity of compounds was measured in mice bearing transplantable tumors. Survival or tumor size were measured and the results are expressed as the measurement made in the treated group (T) divided by the measurement made in the vehicle treated control group (C). The tumor model used in this assay is P388 Leukemia (intraperitoneal) in CD2F1 (CDF1) mice
Inconclusive results and toxic doses are left out.

Use these answered entries as a reference point.
1) COc1ccccc1NC(=O)CC(=O)N1N=C(N(c2ccccc2)c2ccccc2)CC1c1ccccc1 (stereo not given)	107 % of control
2) O=C1C(=O)N(c2ccc([N+](=O)[O-])cc2)C(=O)N1c1ccc([N+](=O)[O-])cc1	95 % of control
3) O=C(CCC(=O)Nc1ccc(Cl)cc1Cl)CC(=O)c1ccco1	105 % of control
4) O=c1[nH]c2c([N+](=O)[O-])cc(Cl)cc2nc1/C=C(\O)c1ccco1	89 % of control

List reported T/C for each of these compounds:
1. CSc1c(C)c(C)nn1-c1ccccc1
2. CC1Cc2nc3ccccc3nc2C1
3. COCCOCOC(C)(C)CCCCl
4. CC(=O)Nc1c(Nc2ccc3c(=O)[nH]ccc3c2C)cc[nH]c1=O
5. [Fe]=[Se]
6. c1ccc(-c2ccc[n+](CC[n+]3cccc(-c4ccccn4)c3)c2)nc1

Solution:
111 % of control
99 % of control
101 % of control
104 % of control
86 % of control
100 % of control

====

Test system: P388 leukemia ip, CD2F1 mice, survival T/C
Assay: NCI In Vivo Anticancer Drug Screen. Data for tumor model P388 Leukemia (intraperitoneal) in CD2F1 (CDF1) mice
Conditions: endpoint: median survival time; dose: 100.0 mg/kg/injection; schedule: Q01DX005 (ip); vehicle: saline; higher = longer survival
Toxic doses and inconclusive results are not listed. Peptide text beside a SMILES is read from it.
readout kind: T/C

# annotated cases, reported T/C shown
1. CCCN(CCNc1cc(OC)cc2cccnc12)C(C)CC (centres undefined)	92 % of control
2. CC(=O)OC(C)C(=O)NCC(C)O (centres undefined)	98 % of control
3. NC(CC(=O)O)C(=O)NC(CC(=O)O)C(=O)O (stereo not drawn) (H-Asp-Asp-OH; configuration not given here)	99 % of control

// moving on: another record for T/C
Exercise: Print P388 leukemia ip, CD2F1 mice, survival T/C T/C for CN(C)CCC(=O)c1ccc(C(=O)CCN(C)C)cc1 .
Solution: 107 % of control

====

Tested on: P388 leukemia ip, CD2F1 mice, survival T/C
Assay: NCI In Vivo Anticancer Drug Screen. Data for tumor model P388 Leukemia (intraperitoneal) in CD2F1 (CDF1) mice
Conditions: endpoint: median survival time; dose: 400.0 mg/kg/injection; schedule: Q01DX001 (ip); vehicle: Klucel (hydroxypropylcellulose) (HPC); higher = longer survival
Description: The antitumor activity of compounds was measured in mice bearing transplantable tumors. Survival or tumor size were measured and the results are expressed as the measurement made in the treated group (T) divided by the measurement made in the vehicle treated control group (C). The tumor model used in this assay is P388 Leukemia (intraperitoneal) in CD2F1 (CDF1) mice
Inconclusive results and toxic doses are left out.
Exercise: for every item that follows, state its recorded T/C.

Sample answers from the record:
1) O=C1CC(C2(c3ccc4c(c3)OCO4)SCCCS2)CO1 (stereo unspecified)	99 % of control
2) CN(Cc1nc(-c2ccccc2)no1)c1nc(-c2ccccc2)no1	95 % of control
3) Oc1ccccc1/C=N/Nc1nnnn1-c1ccccc1	98 % of control
4) C=Cn1c([N+](=O)[O-])cnc1/C=C/c1ccc(C#N)cc1	93 % of control
5) COc1cc2c(/C=N/Nc3ccccc3[N+](=O)[O-])c(Cl)[nH]c2cc1C	90 % of control

Exercise: For NC(=O)C(CC(C(=O)O)c1ccccc1)c1ccccc1 (stereo unspecified) , write its T/C.
Solution: 97 % of control
